Values compiled from patent US9169254B2.

# study_target: human PTH1 receptor (Homo sapiens)
# Sequence (Q03431 27-593): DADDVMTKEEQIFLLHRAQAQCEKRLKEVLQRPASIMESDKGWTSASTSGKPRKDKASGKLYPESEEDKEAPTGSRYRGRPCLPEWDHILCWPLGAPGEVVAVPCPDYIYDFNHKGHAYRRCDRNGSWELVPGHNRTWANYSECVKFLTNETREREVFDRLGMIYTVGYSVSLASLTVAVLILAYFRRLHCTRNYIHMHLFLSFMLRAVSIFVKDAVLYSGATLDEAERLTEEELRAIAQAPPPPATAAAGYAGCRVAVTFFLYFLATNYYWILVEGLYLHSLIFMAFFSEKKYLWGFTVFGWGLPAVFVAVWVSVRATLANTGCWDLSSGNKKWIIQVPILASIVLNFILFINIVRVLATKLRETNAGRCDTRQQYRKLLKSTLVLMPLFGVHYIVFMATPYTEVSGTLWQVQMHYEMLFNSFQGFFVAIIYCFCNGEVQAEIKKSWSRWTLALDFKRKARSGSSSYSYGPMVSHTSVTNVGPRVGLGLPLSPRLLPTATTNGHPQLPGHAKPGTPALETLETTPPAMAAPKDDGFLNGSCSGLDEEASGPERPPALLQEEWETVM
# procedure_details: In vitro cAMP signal activity in HKRK-B7 cells (LLC-PK1 cells overexpressing the human PTH1 receptor)
# Format: cell-based
# assay_context: HKRK-B7 cells; compound at 1×10^−3 M; cAMP produced as percentage of that produced by hPTH(1-34) at 100 nM
Quick rule for you: cAMP production activity (%) under 80% gets rule met, anything else gets rule not met.

> print(dat)
                           structure.smiles         group
1  O=C1NC(c2ccccc2-c2ccccc2)=NC12CCN(S(=O)(=O)c1cccc(Cl)c1)CC2      rule met
2  CC(=O)Nc1ccc(CCS(=O)(=O)N2CCC3(CC2)N=C([C@H]2CC[C@H](CC=C(F)F)CC2)NC3=O)c(C)c1      rule met
3  Cc1cc(C(=O)N2CCC(CO)CC2)cc(C)c1/C=C/[S@TB4](=O)(=O)N1CCC2(CC1)N=C(c1ccc(F)c(C(F)(F)F)c1)NC2=O  rule not met
4  Cc1cc(C2=NC3(CCN(S(=O)(=O)/C=C/c4c(C)cc(C(=O)N5CCC(O)(CF)CC5)cc4C)CC3)C(=O)N2)ccc1OC(F)(F)F  rule not met
5  Cc1cc(C(=O)N(C)C)ccc1CCS(=O)(=O)N1CCC2(CC1)N=C(c1cccc(OC(F)(F)F)c1)N=C2N(C)C      rule met

###

# study_target: human PTH1 receptor (Homo sapiens)
# procedure_details: In vitro cAMP signal activity in HKRK-B7 cells (LLC-PK1 cells overexpressing the human PTH1 receptor)
# Assay type: cell-based
# assay_context: HKRK-B7 cells; compound at 1×10^−3 M; cAMP produced as percentage of that produced by hPTH(1-34) at 100 nM
Tick y if cAMP production activity (%) is 50% or greater. Tick n if cAMP production activity (%) is less than 50%.

> print(dat)
                                    compound                        study.target  group
 1  CN1CCCc2c(/C=C/S(=O)(=O)N3CCC4(CC3)N=C(C3CCCCC3)NC4=O)cccc21 [Compound 638]  human PTH1 receptor (Homo sapiens)      n
 2  CC(=O)N(C)c1ccc(/C=C/S(=O)(=O)N2CCC3(CC2)N=C(c2cccc(OC(F)(F)F)c2)NC3=O)c(C)c1 [Compound 237]  human PTH1 receptor (Homo sapiens)      y
 3  Cc1cc(C(=O)N(C)C)ccc1CCS(=O)(=O)N1CCC2(CC1)N=C(c1cccc(OC(F)(F)C(F)F)c1)NC2=O [Compound 140]  human PTH1 receptor (Homo sapiens)      y
 4  Cc1cc(N(CCO)S(C)(=O)=O)ccc1/C=C/S(=O)(=O)N1CCC2(CC1)N=C(c1cccc(OC(F)(F)F)c1)NC2=O [Compound 719]  human PTH1 receptor (Homo sapiens)      y
 5  Cc1cc(N2C(=O)CNC2=O)cc(C)c1/C=C/S(=O)(=O)N1CCC2(CC1)N=C(C1CCC(C(C)C)CC1)NC2=O (centres unmarked) [Compound 564]  human PTH1 receptor (Homo sapiens)      y
 6  CC(C)=C1CCC(C2=NC3(CCN(S(=O)(=O)CCc4c(C)cc(N(C)C(N)=O)cc4C)CC3)C(=O)N2)CC1 (centres unmarked) [Compound 1310]  human PTH1 receptor (Homo sapiens)      y
 7  Cc1cc(NCC(=O)N2CCN(C)CC2)ccc1/C=C/S(=O)(=O)N1CCC2(CC1)N=C(c1cccc(OC(F)(F)F)c1)NC2=O [Compound 528]  human PTH1 receptor (Homo sapiens)      y
 8  COc1cccc(/C=C/S(=O)(=O)N2CCC3(CC2)N=C(C2CCCCC2)NC3=O)c1 [Compound 180]  human PTH1 receptor (Homo sapiens)      y
 9  Cc1cc(C(=O)N2CCC(O)(CF)CC2)cc(C)c1/C=C/S(=O)(=O)N1CCC2(CC1)N=C(c1ccc(F)c(C)c1C)NC2=O [Compound 1240]  human PTH1 receptor (Homo sapiens)      y
10  Cc1cc(N(C)C(N)=O)cc(C)c1CCS(=O)(=O)N1CCC2(CC1)N=C(CCCCCCCCCCC1(C)COC1)NC2=O [Compound 1032]  human PTH1 receptor (Homo sapiens)      y
11  CC(C)(C)OC(=O)N1CCCC(C2=NC3(CCN(S(=O)(=O)c4cccc(Cl)c4)CC3)C(=O)N2)C1 (centres unmarked) [Compound 18]  human PTH1 receptor (Homo sapiens)      n
12  CC(=O)OC[C@H](CN(C(C)=O)c1ccc(CCS(=O)(=O)N2CCC3(CC2)N=C(c2ccc(OC(F)(F)F)cc2)NC3=O)c(C)c1)OC(C)=O [Compound 152]  human PTH1 receptor (Homo sapiens)      n
13  O=C(CO)NCc1ccc(CCS(=O)(=O)N2CCC3(CC2)N=C(C2CCCCC2)NC3=O)cc1 [Compound 659]  human PTH1 receptor (Homo sapiens)      n
14  Cc1cc(C(=O)N(C)C)ccc1CCS(=O)(=O)N1CCC2(CC1)N=C(N(C)c1ccccc1)NC2=O [Compound 1397]  human PTH1 receptor (Homo sapiens)      n
